- Test system: SNB-75 CNS
- experimental.details: NCI tumour cell line growth inhibition, 48 h
readout.name: GI50

Worked cases, GI50 given:
COc1cccc(-c2nc3sccn3c2-c2ccnc(NCCCNS(=O)(=O)c3cccc(F)c3)c2)c1 = 1730 nM
COc1ccc(-c2cn[nH]c2-c2cc(OC)c3c(c2)OCO3)cc1 = 134 nM
COC(=O)CCc1c[nH]c2ccc(N(CCCl)CCCl)cc12 = 1040 nM
CNC(=O)c1ccc(N2CCN(Cc3ccc4nc(C)c(=O)[nH]c4c3F)CC2)c(F)n1 = 16400 nM
CC(=O)[O][Ga]([Cl])[O]C(C)=O = > 100000 nM

Q) Which GI50 is listed for `Clc1nc(Cl)c2ncn(Cc3cccc(Cn4cnc5c(Cl)nc(Cl)nc54)c3)c2n1` ?
A) 5580 nM
